ASSAY_READOUT: melting point

given_smiles=COc1ccccc1Nc1cc(Cl)nc(N)n1 measurement="240 to 242 °C"
given_smiles=Nc1nc(Cl)cc(Nc2cccc(Cl)c2)n1 measurement="177 to 179 °C"
given_smiles=Nc1nc(Cl)cc(NCc2cccnc2)n1 measurement="210 to 212 °C"
given_smiles=Cc1ccc(C)c(Nc2cc(Cl)nc(N)n2)c1 measurement="173 to 175 °C"
given_smiles=Nc1nc(Cl)cc(NCc2ccco2)n1 measurement="140 to 142 °C"
given_smiles=COc1cccc(Nc2cc(Cl)nc(N)n2)c1 measurement="178 to 180 °C"

# per-item lookup of melting point; items listed below
1. Nc1nc(Cl)cc(N2CCN(c3ccccc3)CC2)n1
2. Cc1cccc(Nc2cc(Cl)nc(N)n2)c1C
3. CCc1ccc(Nc2cc(Cl)nc(N)n2)cc1
4. CC(C)c1ccccc1Nc1cc(Cl)nc(N)n1
5. COc1ccc(OC)c(Nc2cc(Cl)nc(N)n2)c1
6. Cc1ccc(Cl)cc1Nc1cc(Cl)nc(N)n1

Solution:
1: 200 to 202 °C; 2: 176 to 178 °C; 3: 172 to 174 °C; 4: 170 to 172 °C; 5: 182 to 184 °C; 6: 175 to 177 °C

# per-item lookup of melting point; items listed below
1. Nc1nc(Cl)cc(Nc2ccc(Cl)cc2)n1
2. CCCCc1ccc(Nc2cc(Cl)nc(N)n2)cc1
3. COc1ccc(Nc2cc(Cl)nc(N)n2)cc1
4. Cc1ccc(Nc2cc(Cl)nc(N)n2)cc1C
5. Nc1nc(Cl)cc(Nc2cccc(Br)c2)n1
6. Nc1nc(Cl)cc(N2CCNCC2)n1
7. Nc1nc(Cl)cc(Nc2ccc(I)cc2)n1

Solution:
1. 182 to 184 °C
2. 175 to 177 °C
3. 222 to 223 °C
4. 179 to 180 °C
5. 180 to 182 °C
6. > 300 °C
7. 250 to 252 °C
